Each record here notes measured response of antibody #2.
Target: human LILRB2 (human) (UniProt Q8N423)
Assay: BLI Octet sandwich binning; competitor (antibody #1 on sensor) J-16
// return just the number, without any unit appended

Would you please look over these solved cases?
Binder | response of antibody #2
J-19 (antibody, human IgG4 S228P, kappa, V domains shown) VH: QVTLKESGPGILQPSHTLSLTCSFSGFSLNTYAMGVSWIRQPSGKGLEWLASIWWNGNKYNNPSLKSRLTVSKDTSNNQAFLKVTSVDTADTATYYCAHSRIIRFTDYVMDAWGQGASVTVSS VL: DIQMTQSPASLSTFLGEPVTIECRASEDIYNDLAWYQQKPGKSPQLLIYNANSLHTGVPSRFSGSGSGTQYSLKINSLQSEDVASYFCQQYYDYPLTFGSGTKLEIKR | 0.47
J-11 (antibody, human IgG4 S228P, kappa, V domains shown) VH: QVQLQQSGAELMKPGASVKLSCKATGYILTGYWIEWVKQRPGHGLEWIGEILPGSGSTNYNENFKGKATFTADTSSNTAYMQLSSLTTEDSAIYYCARAVLGYFDYWGQGTTLTVSS VL: DIVMTQSHKFMSTSVGDRVSITCKASQDVSTAVAWYQQKPGQSPKLLIYWASTRHTGVPDRFTGSGSGTDYTLTISSVQAEDLALYYCHQHYSTYTFGGGTKLEIKR | 0.3
J-04 (antibody, human IgG4 S228P, kappa, V domains shown) VH: QVQLQQSGAELVRPGASVTLSCKASGYTFADYEIHWVKQTPVHGLEWIGAIDPETGGTAYNQKFKGKAILTADKSSSTAYMELRSLTSEDSAVYYCTRYYDYDDAMDYWGQGTSVTVSS VL: QIVLTQSPAIMSASPGEKVTMTCSASSSVSFMHWYQQKSGTSPKRWIYGTSKLASGVPARFSGSGSGTSYSLTISSMEAEDAATYYCQQWNGNPFTFGSGTKLETKR | -0.31

Let us move to another entry and its response of antibody #2.
Entry under test: J-17 (antibody, human IgG4 S228P, kappa, V domains shown) VH: QIQLVQSGPELKKPGETVKISCKASGYTFTTYGLSWVKQTPGKGLKWMGWINTYSGVPTYTDDFKGRFAFSLETSASTAYLQINNLKNEDTATYFCARPYDFDQVGFAYWGQGTLVTVSA VL: SIVMTQTPKFLLVSAGDRVSITCKASQTVSSDVAWYQQKAGQSPKLLIYYASNRYTGVPDRFTGSGYGTDFTFTISTVQAEDLAVYFCQQDYSSPFTFGGGSKLEIKR . Its response of antibody #2 was 0.09

// provenance: patent US20200339690A1
